Sourced from patent US20230365711A1

# Assayed target: T1, huNABA-avi-his (hybrid protein N-A1-B3-A2: N and A1 domains of human BGP, B3 domain of human CEA, A2 domain … (human, biotinylated at the avi tag (in vivo, co-transfected biotin ligase)))
# T1 construct: also called NABA-avi-his reagent; biotinylated NABA
# T1 chain: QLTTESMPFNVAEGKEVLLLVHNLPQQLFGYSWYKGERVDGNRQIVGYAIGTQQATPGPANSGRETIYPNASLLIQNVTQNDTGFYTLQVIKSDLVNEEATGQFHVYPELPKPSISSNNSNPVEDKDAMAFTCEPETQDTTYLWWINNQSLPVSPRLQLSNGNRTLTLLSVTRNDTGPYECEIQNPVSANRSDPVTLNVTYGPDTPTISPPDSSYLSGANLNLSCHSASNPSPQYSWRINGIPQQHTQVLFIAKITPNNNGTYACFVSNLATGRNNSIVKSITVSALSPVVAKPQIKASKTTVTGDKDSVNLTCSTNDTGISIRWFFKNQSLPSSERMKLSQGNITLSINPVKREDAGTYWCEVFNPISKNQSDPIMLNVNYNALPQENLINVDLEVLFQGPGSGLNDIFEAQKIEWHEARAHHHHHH
# Assay name: Proteon SPR, antibody analyte on biotinylated NABA (Neutravidin chip); column Ka (M)
# Lookup of reported kon keyed by entry
Write it as a number; the unit M⁻¹ s⁻¹ goes unstated.

Some binders with recorded kon:
Binder: anti-CEA antibody with heavy chain CH1A1G and light chain 2F1 (antibody, V domains shown) VH: QVQLVQSGAEVKKPGASVKVSCKASGYTFTEFGMNWVRQAPGQGLEWMGWINTKTGEATYVEEFKGRVTMTTDTSTSTAYMEIRSLRSDDTAVYYCARWDFYDYVEAMDYWGQGTTVTVSS VL: DIQMTQSPSSLSASVGDRVTITCKASAAVGTYVAWYQQKPGKAPKLLIYSASYRKRGVPSRFSGSGSGTDFTLTISSLQPEDFATYYCHQYYTYPLFTFGQGTKLEIKR
kon [M⁻¹ s⁻¹]: 73000
//
Binder: anti-CEA antibody with heavy chain CH1A1B and light chain 2F1 (antibody, V domains shown) VH: QVKLQQSGAEVKKPGASVKVSCKASGYTFTEFGMNWVRQAPGQGLEWMGWINTKTGEATYVEEFKGRVTMTTDTSTSTAYMELRSLRSDDTAVYYCARWDFYDYVEAMDYWGQGTTVTVSS VL: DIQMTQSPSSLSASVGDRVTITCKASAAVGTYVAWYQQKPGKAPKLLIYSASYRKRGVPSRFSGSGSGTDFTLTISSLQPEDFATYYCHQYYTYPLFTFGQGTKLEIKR
kon [M⁻¹ s⁻¹]: 53700
//
Binder: anti-CEA antibody with heavy chain CH1A1F and light chain 2F1 (antibody, V domains shown) VH: QVQLVQSGAEVKKPGASVKVSCKASGYTFTEFGMNWVRQAPGQGLEWMGWINTKTGEATYVEEFKGRVTMTTDTSTSTAYLELRSLRSDDTAVYYCARWDFYDYVEAMDYWGQGTTVTVSS VL: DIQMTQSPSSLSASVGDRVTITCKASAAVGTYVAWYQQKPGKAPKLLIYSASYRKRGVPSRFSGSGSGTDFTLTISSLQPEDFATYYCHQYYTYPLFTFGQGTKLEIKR
kon [M⁻¹ s⁻¹]: 70800

# evaluate next
### Prompt For the binder anti-CEA antibody with heavy chain CH1A1E and light chain 2F1 (antibody, V domains shown) VH: QVQLVQSGAEVKKPGASVKVSCKASGYTFTEFGMNWVRQAPGQGLEWMGWINTKTGEATYVEEFKGRFTMTTDTSTSTAYMELRSLRSDDTAVYYCARWDFYDYVEAMDYWGQGTTVTVSS VL: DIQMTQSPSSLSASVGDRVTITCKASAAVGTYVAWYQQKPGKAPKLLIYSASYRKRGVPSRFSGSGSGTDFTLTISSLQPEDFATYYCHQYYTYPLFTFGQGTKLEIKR , report kon.
### Response 21100
